Tested on: DMS 114 small cell lung
Procedure Details: NCI tumour cell line growth inhibition, 48 h
Property: TGI (µM)

INSERT INTO assay_data (compound, target_entity, inequality_operator, observed_value) VALUES
  ('O=C1Nc2cc(F)ccc2C1=O', 'DMS 114 small cell lung', '>', 100),
  ('N#Cc1cccc(N2C(=O)C3C4C=CC(C3C2=O)C2C(=O)N(c3cccc(C#N)c3)C(=O)C42)c1 (stereo not given)', 'DMS 114 small cell lung', '=', 42),
  ('CCCn1cc2c3c(cccc31)C1C=C(C)CN(C)C1C2 (stereo not given)', 'DMS 114 small cell lung', '=', 43.1),
  ('COc1ccc(OC(C)C(=O)O)c2c(=O)ccccc12 (stereo not given)', 'DMS 114 small cell lung', '>', 100),
  ('C[C@H]1C=C2C(=O)O[C@H]3CC[C@@H](C1)[C@@]23O', 'DMS 114 small cell lung', '=', 8.69),
  ('Cc1ncc(CI)c(CI)c1O', 'DMS 114 small cell lung', '>', 100),
  ('CC[C@]12C=CCN3CCC4(c5cc([C@@]6(C(=O)OC)CC7CN(CCc8c6[nH]c6ccccc86)CC6CCCCC67)c(OC)cc5N(C)C4[C@](O)(C(=O)OC)C1OC(C)=O)[C@@H]32 (stereo not given in full)', 'DMS 114 small cell lung', '<', 0.01),
  ('CCOC(=O)CN1C(=O)c2cc([N+](=O)[O-])cc3cc([N+](=O)[O-])cc(c23)C1=O', 'DMS 114 small cell lung', '>', 100),
  ('O=C[C@@H](CO)O[C@H](C=O)n1cnc2c(=O)[nH]cnc21', 'DMS 114 small cell lung', '=', 202),
  ('O=c1c2cc3ccccc3n2c(=O)c2cc3ccccc3n12', 'DMS 114 small cell lung', '>', 100);

* * *

Test system: RPMI-8226 leukemia
Procedure Details: NCI tumour cell line growth inhibition, 48 h
Numbered stars: 1 amine (or outer) side, 2 acyl side, 3 side chain; on linkers, the order of the positions; unused ones are H or OH. Bridge positions count the residues as written; N and C are the ends. Square brackets hold non-standard residues; d marks the D form. Peptide text beside a SMILES is read from it. I, II: the chains in the order shown. Actinocin(1to9) = Cc1c2oc3c(C)ccc(C(=O)[*:2])c3nc-2c(C(=O)[*:1])c(N)c1=O; NMeY = CN[CH](Cc1ccc(O)cc1)C(=O)O; Sar = CNCC(=O)O
Below: a set of entries, each annotated with reported TGI.
Property: TGI

INSERT INTO results (compound, observed_value) VALUES
  ('CCC1(CC)C(=O)N(C(=O)c2cc(OC)c(OC)c(OC)c2)N(C(=O)c2cc(OC)c(OC)c(OC)c2)C1=O', '> 50 µM'),
  ('CCCCN(CCCC)CC(C(C)=O)C(c1ccccc1)c1c(O)c2ccccc2oc1=O (centres undefined)', '> 100 µM'),
  ('O=C1c2cc3c(cc2CC12Cc1ccc4c(c1C2=O)CCC4)CCC3 (centres undefined)', '> 100 µM'),
  ('COc1cc(/C=N/N=C(\N)NO)c([N+](=O)[O-])cc1OC', '> 100 µM'),
  ('Nc1ccc(/C=C/c2ccc3cccnc3c2)cc1', '> 100 µM'),
  ('COc1c(N2CCN(CN3C(=O)C(=Nc4ccc(S(=O)(=O)Nc5ncccn5)cc4)c4cc(Cl)ccc43)C(C)C2)c(F)cc2c(=O)c(C(=O)O)cn(C3CC3)c12 (centres undefined)', '> 50 µM'),
  ('COc1cc2nccc(Oc3ccc(NC(=O)c4cn(C(C)C)c(=O)n(-c5ccc(F)cc5)c4=O)cc3F)c2cc1OC', '> 100 µM'),
  ('COc1ccc(CC2C(=O)OC(C)C(NC(=O)c3c4nc5c(C(=O)NC6C(=O)NC(C(C)C)C(=O)N7CCCC7C(=O)N(C)CC(=O)N(C)C(Cc7ccc(OC)cc7)C(=O)OC6C)ccc(C)c5oc-4c(C)c(=O)c3N)C(=O)NC(C(C)C)C(=O)N3CCCC3C(=O)N(C)CC(=O)N2C)cc1 (centres undefined) (I: TVP[Sar][NMeY](Me) / II: TVP[Sar][NMeY](Me); ester I:1-I:C, II:1-II:C; linker I:N-II:N via Actinocin(1to9); configuration not given here)', '< 0.01 µM'),
  ('C[C@]12C[C@H](O)[C@H]3[C@@H](CCC4=CC(=O)CC[C@@]43C)[C@@H]1CC[C@@H]2c1csc(-c2ccccc2)n1', '> 100 µM'),
  ('CCC1([N+](=O)[O-])CN(N=O)C1', '> 100 µM'),
  ('O=C1Nc2cc(F)ccc2C1=O', '> 100 µM'),
  ('CC1c2[nH]c3ccccc3c2CCN1O (centres undefined)', '> 100 µM'),
  ('CCOC(=O)c1csc(NC(=O)CCN2CCCC2)n1', '> 100 µM'),
  ('CC(SCc1ccccc1)C(=O)O (centres undefined)', '> 100 µM'),
  ('O=C1c2cc3c(cc2-c2c1c1ccc(Cl)cc1c(=O)n2CCCn1ccnc1)OCO3', '0.546 µM'),
  ('C=C1C(=O)O[C@H]2C[C@@H]1C(=O)CC(C)CCCC(C)=CCC[C@@]2(C)O (some centres undefined)', '> 25 µM'),
  ('CCc1nc2c(c(N(C)C)c1C(=O)OC)CCc1ccccc1-2', '46.6 µM'),
  ('O=c1c2cc3ccccc3n2c(=O)c2cc3ccccc3n12', '> 100 µM'),
  ('COc1cc2c(c(OC)c1)[C@H](C)N(Cc1ccccc1)C(C)C2 (some centres undefined)', '> 100 µM');
